Answer each item with its documented cell viability.
# System: U2OS
# assay_explanation: cell viability relative to DMSO; higher = less toxic
# condition_parameters: 72 h; 1000 nM
State the result as a value with its unit after it.

Can you share its cell viability? I mean this compound: CCS(=O)(=O)N1CC(CC#N)(n2cc(-c3ncnc4[nH]ccc34)cn2)C1
94.4%

Can you share its cell viability? I mean this compound: O=c1c(O)c(-c2ccc(O)c(O)c2)oc2cc(O)ccc12
94.8%

Can you share its cell viability? I mean this compound: Nc1nc(N)c2nc(-c3cccc(O)c3)cnc2n1
95.5%

Can you share its cell viability? I mean this compound: CC(C)(O)CS(=O)(=O)Nc1ccc2c(c1)CCN(C(=O)COc1cccnc1)C2
-0.1%

Can you share its cell viability? I mean this compound: Nc1ncnc2c1ncn2[C@@H]1O[C@H](COP(=O)(O)OP(=O)(O)OP(=O)(O)OP(=O)(O)OC[C@H]2O[C@@H](n3cnc4c(N)ncnc43)[C@H](O)[C@@H]2O)[C@@H](O)[C@H]1O [diadenosine-tetraphosphate]
97.5%

Can you share its cell viability? I mean this compound: C[C@@H]1COC(Nc2ccc3ncnc(Nc4ccc(OCc5nccs5)c(Cl)c4)c3c2)=N1
93.3%

Can you share its cell viability? I mean this compound: O=C(O)CCCCC(=O)O
103%

Can you share its cell viability? I mean this compound: CC(C)C[C@H](NC(=O)CNC(=O)c1cc(Cl)ccc1Cl)B1OC(=O)C(CC(=O)O)(CC(=O)O)O1 [ixazomib-citrate]
0.4%

Can you share its cell viability? I mean this compound: O=C(Nc1ccccc1C(=O)NC1CCCCNC1=O)c1cc2ccccc2s1 (stereo not given)
104%

Can you share its cell viability? I mean this compound: Clc1cccc(-n2nnnc2NCc2ccccc2Oc2ccccn2)c1Cl
102%

Can you share its cell viability? I mean this compound: O=C(/C=C/c1ccc(O)cc1)c1ccc(O)cc1O
98.2%

Can you share its cell viability? I mean this compound: COc1ccccc1N1CCN(CCCNc2cc(=O)n(C)c(=O)n2C)CC1
101%

Can you share its cell viability? I mean this compound: O=S(=O)(O)NC1CCCCC1
101%

Can you share its cell viability? I mean this compound: c1coc(-c2nnc3sc(C4CCCCC4)nn23)c1
97.8%

Can you share its cell viability? I mean this compound: Cc1c(-c2ccccc2)oc2c(C(=O)OCCN3CCCCC3)cccc2c1=O [flavoxate]
104%

Can you share its cell viability? I mean this compound: CN1CCN(CC/C=C2/c3ccccc3Sc3ccc(S(=O)(=O)N(C)C)cc32)CC1
99.4%

Can you share its cell viability? I mean this compound: CO[C@H](C(=O)[C@@H](O)[C@@H](C)O)[C@@H]1Cc2cc3cc(O[C@H]4C[C@@H](O[C@H]5C[C@@H](O)[C@H](O)[C@@H](C)O5)[C@@H](O)[C@@H](C)O4)c(C)c(O)c3c(O)c2C(=O)[C@H]1O[C@H]1C[C@@H](O[C@H]2C[C@@H](O[C@H]3C[C@](C)(O)[C@H](O)[C@@H](C)O3)[C@H](O)[C@@H](C)O2)[C@H](O)[C@@H](C)O1
1%

Can you share its cell viability? I mean this compound: COC(=O)C1=C(C)NC(C)=C([N+](=O)[O-])[C@@H]1c1ccccc1C(F)(F)F (racemic) [BAY-K-8644-(+/-)]
97.9%

Can you share its cell viability? I mean this compound: C[C@H](NC(=O)/C(C#N)=C/c1ccc(O)c(O)c1)c1ccccc1
98.3%

Can you share its cell viability? I mean this compound: COc1cc(NC(C)CCCN)c2ncccc2c1 (stereo not given)
101%

Can you share its cell viability? I mean this compound: C=CCN1CCN(c2nc3ccccc3nc2C#N)CC1
97.9%

Can you share its cell viability? I mean this compound: CCCC(=O)O [sodium-butyrate]
106%

Can you share its cell viability? I mean this compound: CC(C)[C@@]1(NC(=O)[C@@H]2C[C@@H]3c4cccc5[nH]cc(c45)C[C@H]3N(C)C2)O[C@@]2(O)[C@@H]3CCCN3C(=O)[C@H](Cc3ccccc3)N2C1=O [dihydroergocristine]
98.2%

Can you share its cell viability? I mean this compound: N#Cc1ncccn1
99.6%

Can you share its cell viability? I mean this compound: CC(=O)N[C@H](Cc1ccc2ccccc2c1)C(=O)N[C@H](Cc1ccc(Cl)cc1)C(=O)N[C@H](Cc1cccnc1)C(=O)N[C@@H](CO)C(=O)N[C@@H](Cc1ccc(O)cc1)C(=O)N[C@H](CCCNC(N)=O)C(=O)N[C@@H](CC(C)C)C(=O)N[C@@H](CCCNC(=N)N)C(=O)N1CCC[C@H]1C(=O)N[C@H](C)C(N)=O
95.1%

Can you share its cell viability? I mean this compound: Cc1cc(CCC[C@H](CC(=O)NO)C(=O)N[C@H](C(=O)N[C@H](C)c2ccccc2)C(C)(C)C)ccc1-c1ccccc1
99.6%

Can you share its cell viability? I mean this compound: N[C@H](Cc1ccccc1)C(=O)O
95.2%

Can you share its cell viability? I mean this compound: CCn1cc(C(=O)O)c(=O)c2ccc(C)nc21
98.3%

Can you share its cell viability? I mean this compound: C=C1/C(=C\C=C2/CCC[C@]3(C)[C@@H]([C@H](C)/C=C/[C@H](C)C(C)(C)O)CC[C@@H]23)C[C@@H](O)C[C@@H]1O
95.7%

Can you share its cell viability? I mean this compound: CC[C@@H]([C@H](C)O)n1ncn(-c2ccc(N3CCN(c4ccc(OC[C@@H]5CO[C@@](Cn6cncn6)(c6ccc(F)cc6F)C5)cc4)CC3)cc2)c1=O
90%
